Could you please report measured MIC for the items listed next?
- Test system: Candida albicans
- Experimental protocol: Anticandidal activity against Candida albicans MTCC183 after 24 to 48 hrs by broth microdilution technique
- Format: functional
The answer is to be given in µg/mL; state only the numeric part.

Inquiry: Which MIC value belongs to O=C1/C(=C/c2ccco2)SC(=S)N1Cc1ccncc1 ?
Reply text: 3.12

Inquiry: Which MIC value belongs to CCSC(=S)NCc1ccncc1 ?
Reply text: 1.56

Inquiry: Which MIC value belongs to O=C1/C(=C/c2cccnc2)SC(=S)N1Cc1ccncc1 ?
Reply text: 0.78

Inquiry: Which MIC value belongs to O=C1CSC(=S)N1Cc1ccncc1 ?
Reply text: 0.78

Inquiry: Which MIC value belongs to FC(F)(F)c1ccc(CSC(=S)NCc2ccncc2)cc1 ?
Reply text: 0.78

Inquiry: Which MIC value belongs to C=CCSC(=S)NCc1ccncc1 ?
Reply text: 0.78

Inquiry: Which MIC value belongs to O=C1/C(=C/c2ccncc2)SC(=S)N1Cc1ccncc1 ?
Reply text: 0.78

Inquiry: Which MIC value belongs to O=C1/C(=C/c2ccccc2[N+](=O)[O-])SC(=S)N1Cc1ccncc1 ?
Reply text: 12.5

Inquiry: Which MIC value belongs to OC(Cn1cncn1)(Cn1cncn1)c1ccc(F)cc1F ?
Reply text: 4

Inquiry: Which MIC value belongs to CCCSC(=S)NCc1ccncc1 ?
Reply text: 1.56

Inquiry: Which MIC value belongs to S=C(NCc1ccncc1)SCc1ccccc1 ?
Reply text: 0.39

Inquiry: Which MIC value belongs to O=C1/C(=C/c2cc3c(cc2[N+](=O)[O-])OCO3)SC(=S)N1Cc1ccncc1 ?
Reply text: 3.12

Inquiry: Which MIC value belongs to CCCCSC(=S)NCc1ccncc1 ?
Reply text: 1.56
